Reported CD50 values are given for each entry in this list.
- Test system: MRC-5 cells
- experimental.parameters: Example 3; cells exposed 4 days

| compound | CD50 |
| --- | --- |
| O=C(O)c1cc(O)c2c(c1)C(=O)c1cccc(O)c1C2=O | >10 µg/mL |
| O=C1c2ccccc2C(=O)c2c1ccc(O)c2O | >10 µg/mL |
| Cc1cc(O)c2c(c1)C(C1c3cc(C)cc(O)c3C(=O)c3c(O)cc(O)cc31)c1cc(O)cc(O)c1C2=O (stereo not shown) | 1.8 µg/mL |

----------
- Tested on: MRC-5 cells
- experimental.parameters: human
Listed here: items and their measured CD50.

| compound | CD50 |
| --- | --- |
| O=C1c2cccc(O)c2C(=O)c2c(O)cccc21 [1,8-Dihydroxyanthraquinone, 1,8-dihydroxyanthraquinone] | >10 µg/mL |
| O=C1c2ccccc2C(=O)c2c(O)c(O)cc(O)c21 | 5.6 µg/mL |
| O=C1c2cccc(O)c2C(=O)c2c(O)cc(CO)cc21 | >10 µg/mL |
| O=C1c2ccccc2C(=O)c2c(O)ccc(O)c21 [Quinizarin, 1,4-dihydroxyanthraquinone] | >10 µg/mL |
| O=C1c2c(O)cccc2C([C@@H]2O[C@H](CO)[C@@H](O)[C@H](O)[C@H]2O)c2cc(CO)cc(O)c21 (stereo partly drawn) | >10 µg/mL |
| O=C1c2cccc(O)c2C(=O)c2cccc(O)c21 | >10 µg/mL |
| O=C1c2ccccc2C(=O)c2ccccc21 | >10 µg/mL |
| O=C1c2ccc(O)cc2C(=O)c2ccc(O)cc21 | 3.4 µg/mL |
| Cc1cc(O)c2c(c1)C(=O)c1cccc(O)c1C2=O | >10 µg/mL |
